Assay: Components of the Cytosolic LPS Sensing Pathway: Gene Identification via Genome-wide siRNA Screen;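 further: robust z of the log signal after scaling to non-targeting control siRNA wells of the plate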
Details: RAW264.7 macrophages, IL-1a HTRF, actives lie on both sides, screened at 100 nM (by protocol), cells primed 5 h with Pam3CSK4 first
Hit rate of the full screen: of about 53,000 sequences, about 3,700 (7%) were called active. This is one part of a sample in which actives are shown more often than they occur.
# z-score listing for each entry below

[[record]]
primary_sequence = "GGUCUUUGAUCUACGAAUGTT against Rhobtb2"
recorded_value = "0.825 (inactive)"

[[record]]
primary_sequence = "GGGUGUUGAAAGACUUUUATT against Tnks"
recorded_value = "-0.122 (inactive)"

[[record]]
primary_sequence = "GGUCAAAGAUGGAGUAAAUTT against Tmem87a"
recorded_value = "-2.31 (active)"

[[record]]
primary_sequence = "GGGAUAGGGUUCAAUUAGGTT against Bcl2l13"
recorded_value = "0.231 (inactive)"

[[record]]
primary_sequence = "GGCUUAUGUCACCAACUUGTT against Pxdc1"
recorded_value = "-0.533 (inactive)"


Turning now to a further record.
**Q:** Report z-score for GGAAAAGGCAAUCGUUUCUTT against Mtg2 please.
**A:** 0.278 (inactive)

###

Assay: Components of the Cytosolic LPS Sensing Pathway: Gene Identification via Genome-wide siRNA Screen;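 further: robust z of the log signal after scaling to non-targeting control siRNA wells of the plate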
Details: RAW264.7 macrophages, IL-1a HTRF, actives lie on both sides, screened at 100 nM (by protocol), cells primed 5 h with Pam3CSK4 first
Hit rate of the full screen: of about 53,000 sequences, about 3,700 (7%) were called active. The full list was thinned out, with actives kept by preference.
One threshold, 0.5, splits the recorded z-score values: lower ones are met, equal or higher ones are not met.

# count of solved cases: 3
[[record]]
primary_sequence = "GGCUUUCUCCCAGCAAUAGTT against Scrt1"
classification = "met"

[[record]]
primary_sequence = "GCCUUGUCUAUAGGACUGUTT against Grm6"
classification = "met"

[[record]]
primary_sequence = "GCGUGGAGAACCGUUAAUCTT against Shroom3"
classification = "not met"


**Q:** Given the entry GGAAGUGAAGACCUUCUUCTT against St3gal4 , would its reported z-score be below 0.5?
**A:** met

**Q:** Say whether its z-score is strictly beneath 0.5. Entry: GGUGUUUGGGUACCAGUCUTT against Cyp8b1
**A:** met

**Q:** Is 0.5 strictly greater than the sequence's reported z-score? sequence: GGGAAUGCACUACAACUACTT against Chpf
**A:** not met

**Q:** Quick check: does GGGUUUUUCAUAAACAAAGTT against Pdcd1lg2 have z-score under 0.5?
**A:** met

**Q:** Field: below-cutoff. Rule: recorded z-score strictly less than 0.5. Subject: CGACCACACAGGGAUAUACTT against Sectm1a
**A:** met

**Q:** Given GGCAGAUUGAUAAAAUUCATT against Stag1 , is recorded z-score strictly lower than 0.5?
**A:** met

**Q:** # check: z-score < 0.5 for CGGUGCUUGCUUCUAUGUGTT against Olfr642
**A:** met

**Q:** Hello, is z-score of the following sequence strictly smaller than 0.5? GGUGUUAAUCCAGUUCAAUTT against Bbs12
**A:** not met

**Q:** Say whether its z-score is strictly beneath 0.5. Entry: GGAAAGUGUUCUCUACAUGTT against Olfr1093
**A:** not met

**Q:** Would you kindly verify if z-score of GGUACUGGAAAGAAAUGAGTT against Exph5 is strictly less than 0.5?
**A:** met

**Q:** # check: z-score < 0.5 for GCCGAACUUCGGAAUUCUGTT against Nf1
**A:** not met

**Q:** Confirm or reject: z-score of GGAGAAGAAAAAGCGGUACTT against Plxnb2 lies strictly below 0.5
**A:** not met

**Q:** Answer whether the sequence GGGCGGAGCAUUUUUCUUGTT against Ube2d2b has z-score strictly less than 0.5
**A:** met

**Q:** Please indicate whether the reported z-score of GGAUGCUGAUUUAAAGACUTT against Rai14 is strictly below 0.5.
**A:** not met

**Q:** Given GGUCCAAGAGGAAAGACAATT against Adarb2 , is recorded z-score strictly lower than 0.5?
**A:** not met

###

Assay: Components of the Cytosolic LPS Sensing Pathway: Gene Identification via Genome-wide siRNA Screen;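 further: robust z of the log signal after scaling to non-targeting control siRNA wells of the plate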
Conditions: RAW264.7 macrophages, IL-1a HTRF, actives lie on both sides, screened at 100 nM (by protocol), cells primed 5 h with Pam3CSK4 first
Hit rate of the full screen: of about 53,000 sequences, about 3,700 (7%) were called active. Shown is part of a subset that was picked to be rich in actives.
ASSAY_ENDPOINT: z-score

Use these answered entries as a reference point.
[[record]]
primary_sequence = "GGUGACUUGCUUUAGAAAATT against Tnfaip8l1"
assay_endpoint = "z-score"
recorded_value = "0.184 (inactive)"

[[record]]
primary_sequence = "GGUUGAUAAAGGAGCCAUCTT against Mcts1"
assay_endpoint = "z-score"
recorded_value = "1.02 (inactive)"

[[record]]
primary_sequence = "CCACCACCAUCUAAAUAUATT against Ckap2l"
assay_endpoint = "z-score"
recorded_value = "-1.62 (inactive)"

[[record]]
primary_sequence = "GGUAUUGACAGGGAUCUGATT against Limk1"
assay_endpoint = "z-score"
recorded_value = "1.19 (inactive)"

[[record]]
primary_sequence = "CGAGAUCGAGUACUCAACUTT against Vps39"
assay_endpoint = "z-score"
recorded_value = "-2.96 (active)"

[[record]]
primary_sequence = "GGAUUUUUAGUGUUUGACATT against Rab39"
assay_endpoint = "z-score"
recorded_value = "-1.52 (inactive)"

[[record]]
primary_sequence = "GGAAUAUCCCAACAUCUGUTT against Upp1"
assay_endpoint = "z-score"
recorded_value = "-0.899 (inactive)"

[[record]]
primary_sequence = "GGAAAUCUCAGGUGAGGUCTT against Clcc1"
assay_endpoint = "z-score"
recorded_value = "-0.127 (inactive)"

[[record]]
primary_sequence = "GCUAGACCAGAAGAAAGUATT against Gid8"
assay_endpoint = "z-score"
recorded_value = "-1.65 (inactive)"

[[record]]
primary_sequence = "GGCCAGUGUGUGGUCUAAGTT against Cd1d2"
assay_endpoint = "z-score"
recorded_value = "1.89 (inactive)"


**Q:** Endpoint output: z-score of GCCGUGGAUCGAAUAAUUCTT against Coq7 . Value?
**A:** -1.03 (inactive)

**Q:** Fill in: z-score of GCAACUGAACCUUCUGCUATT against Morn2 is ___
**A:** -1.7 (inactive)

###

Test: Components of the Cytosolic LPS Sensing Pathway: Gene Identification via Genome-wide siRNA Screen;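 further: robust z of the log signal after scaling to non-targeting control siRNA wells of the plate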
Settings: RAW264.7 macrophages, IL-1a HTRF, actives lie on both sides, screened at 100 nM (by protocol), cells primed 5 h with Pam3CSK4 first
Out of some 53,000 sequences screened, about 3,700 (7%) were called active. The entries come from a sample that favours actives as a whole.
Measured z-score values are reported for all entries that follow.
// no unit, no text: just the number

Observe how each entry below is paired with its result.
[[record]]
primary_sequence = "GCGUAUUACAGACAGUGACTT against Izumo1"
assay_endpoint = "z-score"
recorded_value = 0.023

[[record]]
primary_sequence = "CCAAGAGAUGCUAGCUAAUTT against Platr28"
assay_endpoint = "z-score"
recorded_value = -0.495

[[record]]
primary_sequence = "GGAAGUCAAGCAUAUUGCCTT against Sntb2"
assay_endpoint = "z-score"
recorded_value = 3.04

[[record]]
primary_sequence = "GGAGUACGAAUUCCUCACUTT against Arhgdib"
assay_endpoint = "z-score"
recorded_value = -0.0475

[[record]]
primary_sequence = "GGAGUAGAUUUAAAAGGCATT against 4933440M02Rik"
assay_endpoint = "z-score"
recorded_value = 0.145

[[record]]
primary_sequence = "GGACGAAGACACCAAAGUGTT against Camk2a"
assay_endpoint = "z-score"
recorded_value = -1.31

[[record]]
primary_sequence = "GGAAAGAGGAAGAUAAAGUTT against 2310002L09Rik"
assay_endpoint = "z-score"
recorded_value = -1.17

[[record]]
primary_sequence = "GCUCUGAUAUUCUCAUCAATT against Olfr39"
assay_endpoint = "z-score"
recorded_value = 1.25

[[record]]
primary_sequence = "GGAGCAGUCUCCUUUUUGUTT against Pcnp"
assay_endpoint = "z-score"
recorded_value = 2.14

[[record]]
primary_sequence = "GGGUCAGAGUUUUUCCAUCTT against Otog"
assay_endpoint = "z-score"
recorded_value = 2.72


**Q:** Given the sequence CCCACUGUGAAGAGAGGCATT against Xlr3c , what is its reported z-score?
**A:** -1.41

**Q:** Which value of z-score has been reported for GCUUAUAAUGCCAUUACUUTT against Rad21 in the records?
**A:** -0.548

**Q:** For GCGAAGUCAUCAAAUUUUCTT against Abcb11 , what is its reported z-score?
**A:** 0.622

Attribution: PubChem BioAssay AID1508600
